tested on: subject's mood; assay: Implicit response test (IRT); format: in vivo, human; parameters: scale not given here; conditions: ingredients of the fragrance composition conveying a fresh mood (Table 1)
measure_name: IRT Score
One number for each entry.

Consider the worked cases shown below.
{"columns": ["molecule", "IRT Score"],
 "data": [
  ["COC(OC)C(C)(C)CC=C(C)C", 1763],
  ["Cc1ccc2c(c1)OCC(=O)CO2 [CALONE, 7-methyl-1,5-benzodioxepin-3-one]", 2830],
  ["CC(C)=CCC/C(C)=C/C=O", 2393]
]}

Hi, could you look up IRT Score for each item in my list?
1. CC(C=O)Cc1ccc2c(c1)OCO2 (stereo not shown)
2. C=CC(C)(O)CCC=C(C)CC (mixture of isomers)
3. CC(C=O)Cc1ccc(C(C)C)cc1 (stereo not shown)
4. CC1(C)CCCC2(C)C1CCC1(C)OCCC12 (stereo not shown) [AMBROXIDE]

Result block:
[742, 1682, 1005, 1643]

The reported measurements were obtained from patent US20250302728A1.
